Reported pEC50 values for a set of compounds
Tested on: pLAI reporter virus
Assay: microbe, parasite or virus in culture
Type: cell-based, HIV
Conditions: Human immunodeficiency virus 1, MT4, 72 h, read-out: RLUC CCM EC50
# log scale: pEC50 equals minus log10 of the concentration in mol/L

Here's what some known entries look like.
- Compound: "COC1=NO[C@]2(CC[C@H](C)N3C[C@H]2n2cc(C(=O)NCc4c(F)cc(F)cc4F)c(=O)c(O)c2C3=O)C1"
  pEC50: 9.15
- Compound: "CC1=NO[C@@]2(CC[C@H](C)N3C[C@H]2n2cc(C(=O)NCc4c(F)cc(F)cc4F)c(=O)c(O)c2C3=O)[C@@H]1F"
  pEC50: 9.40
- Compound: "CC1C[C@@]2(CC[C@H](C)N3C[C@H]2n2cc(C(=O)NCc4c(F)cc(F)cc4F)c(=O)c(O)c2C3=O)OCO1 (stereo partly drawn)"
  pEC50: 9.70

Ask | Tell me reported pEC50 for C[C@H]1CC[C@]2(COC(C)(C)O2)[C@H]2CN1C(=O)c1c(O)c(=O)c(C(=O)NCc3c(F)cc(F)cc3F)cn12 , tested with pLAI reporter virus.
Reply | 9.52

Ask | Tell me reported pEC50 for C[C@H]1CC[C@]2(CC(=O)NO2)[C@H]2CN1C(=O)c1c(O)c(=O)c(C(=O)NCc3ccc(F)cc3F)cn12 , tested with pLAI reporter virus.
Reply | 7.60

Ask | Tell me reported pEC50 for CCCC1=NO[C@@]2(CC[C@H](C)N3C[C@H]2n2cc(C(=O)NCc4c(F)cc(F)cc4F)c(=O)c(O)c2C3=O)C1 , tested with pLAI reporter virus.
Reply | 9.52
